- assayed system: Aquaporin 9 (AQP9) (Mus musculus, UniProt Q9JJJ3)
- Sequence (Q9JJJ3 whole entry): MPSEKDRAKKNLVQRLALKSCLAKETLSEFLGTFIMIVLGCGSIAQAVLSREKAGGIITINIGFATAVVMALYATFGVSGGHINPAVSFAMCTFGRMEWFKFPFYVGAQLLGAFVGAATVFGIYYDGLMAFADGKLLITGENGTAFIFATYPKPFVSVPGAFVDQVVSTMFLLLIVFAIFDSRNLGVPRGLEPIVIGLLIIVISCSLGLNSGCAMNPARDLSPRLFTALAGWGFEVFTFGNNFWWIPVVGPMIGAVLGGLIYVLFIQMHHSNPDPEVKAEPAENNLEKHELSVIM
- procedure summary: water and glycerol permeability in CHO cells expressing mouse AQP9 (calcein fluorescence)
- Format: cell-based
reported endpoint: IC50

O=C(CCc1ccc(O)cc1)c1c(O)cc(O)cc1O [Phlor, phloretin] yielded IC50 of ~720 nM
